ASSAYED TARGET: cIAP2XBIR3 (Homo sapiens, UniProt Q13489, C294S/R318G/S278A)
Sequence (Q13489 with tags, fused parts or gaps S278A/C294S/R318G): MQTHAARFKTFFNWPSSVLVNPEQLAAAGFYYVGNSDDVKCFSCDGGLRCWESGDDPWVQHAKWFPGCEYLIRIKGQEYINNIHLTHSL
PROTOCOL NOTES: Fluorescence polarization peptide binding assay, cIAP2XBIR3
EXPERIMENTAL CONDITIONS: 0.4 μM cIAP2XBIR3, 5 nM AVP-diPhe-FAM probe
pIC50: −log10 of the molar value.

# COMPOUND, pIC50
rows = [
    ("CN[C@@H](C)C(=O)N[C@H](C(=O)N1CCC[C@H]1c1cc2ccnc(-c3ccccc3)c2[nH]1)C1CCOCC1 [compound 1]", 6.30),
]

---

ASSAYED TARGET: MLXBIR3SG (Homo sapiens, UniProt Q96CA5, S150G)
Sequence (Q96CA5 with tags, fused parts or gaps S150G): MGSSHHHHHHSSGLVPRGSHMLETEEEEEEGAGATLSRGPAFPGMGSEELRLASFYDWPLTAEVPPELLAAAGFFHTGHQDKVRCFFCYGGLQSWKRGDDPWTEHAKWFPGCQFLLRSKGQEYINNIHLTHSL
PROTOCOL NOTES: Fluorescence polarization peptide binding assay, MLXBIR3SG
EXPERIMENTAL CONDITIONS: 0.06 μM MLXBIR3SG, 5 nM AVP-diPhe-FAM probe; Ki determined from IC50
METRIC: Ki (nM)

# RECORD SMILES, ASSAYED TARGET, NUMERIC READOUT
measured = [
    ("CN[C@@H](C)C(=O)N[C@H](C(=O)N1CCC[C@H]1c1cc2nc(C)nc(-c3ccccc3)c2[nH]1)C1CCCCC1", "MLXBIR3SG (Homo sapiens, UniProt Q96CA5, S150G)", 31.7),
    ("CN[C@@H](C)C(=O)N[C@H](C(=O)N1CCC[C@H]1c1cc2ncnc(-c3ccccc3)c2[nH]1)C1CCOCC1", "MLXBIR3SG (Homo sapiens, UniProt Q96CA5, S150G)", 35.6),
    ("CN[C@@H](C)C(=O)N[C@H](C(=O)N1CCC[C@H]1c1cc2nc(C)nc(-c3ccccc3)c2[nH]1)C1CCOCC1", "MLXBIR3SG (Homo sapiens, UniProt Q96CA5, S150G)", 81.9),
    ("CN[C@@H](C)C(=O)N[C@H](C(=O)N1CCC[C@H]1c1cc2ccnc(-c3ccc(F)cc3)c2[nH]1)C1CCOCC1", "MLXBIR3SG (Homo sapiens, UniProt Q96CA5, S150G)", 25.7),
    ("CN[C@@H](C)C(=O)N[C@H](C(=O)N1CCC[C@H]1c1cc2ccnc(-c3ccc(F)cc3)c2[nH]1)C1CCCCC1", "MLXBIR3SG (Homo sapiens, UniProt Q96CA5, S150G)", 22.6),
]

FYI, the data here is from patent US20110218211A1.
